# system: UniProtKB P16050
# Sequence (P16050 whole entry): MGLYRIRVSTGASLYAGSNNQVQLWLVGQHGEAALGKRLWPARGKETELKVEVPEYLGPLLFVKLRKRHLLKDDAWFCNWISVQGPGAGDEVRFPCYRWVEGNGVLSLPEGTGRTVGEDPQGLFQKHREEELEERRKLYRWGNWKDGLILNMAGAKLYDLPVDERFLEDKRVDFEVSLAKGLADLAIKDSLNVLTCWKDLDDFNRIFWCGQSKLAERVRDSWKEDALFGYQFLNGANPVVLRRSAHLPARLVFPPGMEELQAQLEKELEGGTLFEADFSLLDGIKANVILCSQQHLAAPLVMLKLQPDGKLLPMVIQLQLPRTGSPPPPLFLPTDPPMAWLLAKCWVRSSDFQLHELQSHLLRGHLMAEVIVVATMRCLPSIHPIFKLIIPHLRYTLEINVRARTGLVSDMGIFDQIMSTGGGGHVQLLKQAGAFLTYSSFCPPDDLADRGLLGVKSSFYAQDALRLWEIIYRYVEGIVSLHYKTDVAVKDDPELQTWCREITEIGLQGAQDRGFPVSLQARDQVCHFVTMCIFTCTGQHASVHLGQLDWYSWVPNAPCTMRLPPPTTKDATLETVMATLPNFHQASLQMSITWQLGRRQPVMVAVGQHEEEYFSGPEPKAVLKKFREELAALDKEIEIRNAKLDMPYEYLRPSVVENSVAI
# test-protocol: Concentration that cause 50% activation of human reticulocyte 15-lipoxygenase (15-HLO)
parameter: AC50 (µM)

Some solved entries appear below for comparison.
- compound-structure-string: "CCC(=O)Oc1ccc(C[C@@H](C)[C@@H](C)Cc2ccc(OC(=O)CC)c(OC(=O)CC)c2)cc1OC(=O)CC"
  parameter: "AC50"
  units-label: "µM"
  reported-result: 0.3
- compound-structure-string: "CCCCCC(=O)Oc1ccc(C[C@@H](C)[C@@H](C)Cc2ccc(OC(=O)CCCCC)c(OC(=O)CCCCC)c2)cc1OC(=O)CCCCC"
  parameter: "AC50"
  units-label: "µM"
  reported-result: 0.2

[P] CC(C)C(=O)Oc1ccc(C[C@@H](C)[C@@H](C)Cc2ccc(OC(=O)C(C)C)c(OC(=O)C(C)C)c2)cc1OC(=O)C(C)C
[Q] CCCC(=O)Oc1ccc(C[C@@H](C)[C@@H](C)Cc2ccc(OC(=O)CCC)c(OC(=O)CCC)c2)cc1OC(=O)CCC
## Input Lowest AC50? choose P or Q Pick one; state its label.
## Output Q
(Q: 0.3 µM, P: 0.5 µM)
